# System: T47D
# TEST NAME: NCI tumour cell line growth inhibition, 48 h
The source made the active and inactive calls. No stated cut-off is given here; in the data, active = GI50 up to about 1.1 µM and inactive = higher.
RECORDED ENDPOINT: GI50

{"columns": ["COMPOUND", "TEST VALUE"],
 "data": [
  ["COc1ccc(-c2[nH]c3c4c(nc5c(c24)C(=O)CC(C)(C)C5)CC(C)(C)C3)cc1", "44.5 µM (inactive)"],
  ["O=[N+]([O-])c1ccc(N2N=C(c3c(O)ccc4ccccc34)CC2c2ccc(Cl)cc2)c([N+](=O)[O-])c1 (centres undefined)", "32.6 µM (inactive)"],
  ["C#CCn1c(=O)c(C)cn(/C(=C\\C(=O)OCC)C(=O)OCC)c1=O", "2.65 µM (inactive)"],
  ["CCCCCC(=O)OC[n+]1cccc(-c2c(COC(=O)NC(C)C)c(COC(=O)NC(C)C)c3n2CCC3)c1", "> 61.8 µM (inactive)"],
  ["Cc1cc(NS(=O)(=O)c2ccc(/N=N/c3c(Nc4ccccc4)nn(-c4ccc(S(=O)(=O)Nc5ccncn5)cc4)c3C)cc2)no1", "> 100 µM (inactive)"],
  ["O=C(/C=C(\\O)c1cc(-c2ccccc2)n(-c2ccccc2)n1)c1ccccc1", "3.7 µM (inactive)"],
  ["c1cncc(CNc2ncn[nH]2)c1", "> 100 µM (inactive)"],
  ["COc1ccc(/N=C2\\C(=O)Nc3ccc(Br)cc32)cc1", "18.3 µM (inactive)"],
  ["CC1(C)CC(=O)C2=C(C1)N(c1ccccc1)C1(O)C=CC(O)=C3C(=O)c4ccccc4C(=O)C321 (centres undefined)", "45.3 µM (inactive)"]
]}

---

GI50 for assorted compounds
# System: UACC-257
# TEST NAME: NCI tumour cell line growth inhibition, 48 h
The source made the active and inactive calls. No stated cut-off is given here; in the data, active = GI50 up to about 1.1 µM and inactive = higher.

{"columns": ["COMPOUND", "GI50"],
 "data": [
  ["Cc1cccc2c(N)c3cccc(C(=O)NCC[N+](C)(C)Cc4sccc4[N+](=O)[O-])c3nc12", "26.9 µM (inactive)"],
  ["Nc1nc(SCCC/C=C/I)nc2c1ncn2C1OC(CO)C(O)C1O (stereo not given)", "> 202 µM (inactive)"],
  ["c1cncc(CNc2ncn[nH]2)c1", "> 100 µM (inactive)"],
  ["Cc1sc(Nc2ccc(Nc3nc(-c4ccccc4)c(C)s3)cc2)nc1-c1ccccc1", "43.1 µM (inactive)"],
  ["Cc1cc(S(=O)(=O)O)c(NC(=O)C(=O)Cc2cc(=O)oc3cc(O)ccc23)cc1Cl", "> 100 µM (inactive)"],
  ["ClCCN(CCCl)c1ccc(/C=N/Nc2ccnc3ccccc23)cc1", "1.84 µM (inactive)"],
  ["Cn1cnc([N+](=O)[O-])c1Sc1nnc(-c2ccc(Cl)cc2)n1C", "12.7 µM (inactive)"],
  ["CC1(C)Oc2ccccc2[N+]([O-])=C1c1ccccc1", "> 100 µM (inactive)"],
  ["CSC(SC)(C(=O)O)c1cc(-c2c(Cl)cccc2Cl)no1", "42.9 µM (inactive)"],
  ["Cc1csc2nc(-c3ccc([N+](=O)[O-])cc3)c(/C=N/N=C(N)N)n12", "1.91 µM (inactive)"]
]}

---

# Tested on: MDA-MB-435
# TEST NAME: NCI tumour cell line growth inhibition, 48 h
The source made the active and inactive calls. Rule as the data show it: active = GI50 up to about 1.1 µM and inactive = higher.

{"columns": ["MOLECULE", "TARGET SYSTEM", "GI50"],
 "data": [
  ["Cc1sc(N)c(S(=O)(=O)c2ccccc2)c1C", "MDA-MB-435", "> 100 µM (inactive)"],
  ["CCCCCCCCCCCCCC[S+](C)C", "MDA-MB-435", "1.91 µM (inactive)"],
  ["COC(=O)/C=C(\\C(=O)OC)c1cc(C)c2cc(C(C)C)ccc(C)c1-2", "MDA-MB-435", "30 µM (inactive)"],
  ["COc1ccc2[nH]c3ccc4cc[n+](CCN5CCC(C6CCN(CC[n+]7ccc8ccc9[nH]c%10ccc(OC)cc%10c9c8c7)CC6)CC5)cc4c3c2c1", "MDA-MB-435", "> 50 µM (inactive)"],
  ["Cc1ccc(-c2n[nH]c(CC#N)n2)cc1", "MDA-MB-435", "> 100 µM (inactive)"],
  ["COC1=CC(=O)c2c(O)c3c(c(O)c2C1=O)OC1(Oc2c(cc4cc(C)oc(=O)c4c2O)CC1O)C3O (stereo not given)", "MDA-MB-435", "33.7 µM (inactive)"],
  ["N=c1c2sc3nc4ccccc4n3c2ncn1Cc1ccccc1", "MDA-MB-435", "> 100 µM (inactive)"],
  ["COC(=O)c1c(OC(C)=O)ccc2c1c1c(n2Cc2ccccc2)C(=O)c2ccccc2C1=O", "MDA-MB-435", "18.7 µM (inactive)"],
  ["Cc1ccc(-c2nc(-c3cnccn3)n(C3OC(CO)C(O)C(O)C3O)n2)cc1 (stereo not given)", "MDA-MB-435", "> 100 µM (inactive)"],
  ["CN(C(=O)Cc1ccccc1)n1cnn(CC(=O)OC(C)(C)C)c1=S", "MDA-MB-435", "> 10 µM (inactive)"]
]}

---

# System: NCI/ADR-RES
# TEST NAME: NCI tumour cell line growth inhibition, 48 h
Activity calls are given as the source filed them. Cut-off read from the data, not from the text of the source: active = GI50 up to about 1.1 µM and inactive = higher.
Outcome codes: active, inactive

{"columns": ["COMPOUND", "CLASS LABEL"],
 "data": [
  ["CC(C)=Cc1cc(CCC/C(C)=C/Cc2c(O)cc(C)c(C(=O)O)c2O)co1", "inactive"],
  ["CCOC(=O)c1ccc(N[C@@H]2c3cc4c(cc3C(c3cc(OC)c(O)c(OC)c3)[C@H]3C(=O)OCC32)OCO4)cc1O (stereo partly specified)", "inactive"],
  ["CC1(C)N=c2c(ncn2N)=C(C(N)=O)N1", "inactive"],
  ["CCCCCC(=O)OC[n+]1cccc(-c2c(COC(=O)NC(C)C)c(COC(=O)NC(C)C)c3n2CCC3)c1", "inactive"],
  ["C=C1C(=O)OC2CC(C)C(C(O)CC(C)O)=CCC12 (stereo unspecified)", "inactive"],
  ["NC(CCc1ccccc1)(C(=O)O)c1ccccc1 (stereo unspecified)", "inactive"],
  ["C=C=C(CC1CCCCC1=O)S(=O)(=O)c1ccccc1 (stereo unspecified)", "inactive"],
  ["Nc1nc2cc(CNc3ccc(C(=O)O)cc3)ccc2nc1-c1ccccc1", "inactive"],
  ["CN(C)S(=O)(=O)c1ccc2c(c1)/C(=C1/Nc3ccccc3C1=O)C(=O)N2", "inactive"],
  ["Cc1cc(N)ccc1/N=N\\c1ccc(S(=O)(=O)CCOS(=O)(=O)O)cc1", "active"],
  ["CC(=O)n1nc(-c2ccccc2)n(/N=C/c2ccc([N+](=O)[O-])o2)c1=O", "inactive"],
  ["CCOC(=O)c1cc(C2CCN(CC(C)CC)C2=S)c(-c2cc(C)no2)[nH]1 (stereo unspecified)", "inactive"],
  ["COC(=O)c1cc(C)n(CN(Cn2nc(C(=O)OC)cc2C)c2ccccc2)n1", "inactive"],
  ["CCCCCCC(C)CC(CCCCCC)NCCOC(=O)c1ccc([N+](=O)[O-])cc1 (stereo unspecified)", "inactive"],
  ["COC(=O)C1CCC(=S)N1C(=O)c1ccccc1 (stereo unspecified)", "inactive"],
  ["CCCCCCCCC[n+]1cccc(C2C(C(=O)OCC)=C(C)NC(C)=C2C(=O)OCC)c1", "inactive"],
  ["CCOC(=O)/C(=N/Nc1ccc(Cl)cc1)N1C(=S)N(C)N=C(C)C=C1S", "inactive"],
  ["CC(NC(=O)C(N)CC(=O)O)NC(=O)N(C)C(C)(C)C (stereo unspecified)", "inactive"],
  ["Cc1nn(-c2ccccc2)c(C)c1/C=N/N=C1\\SCC(=O)N1c1ccccc1", "inactive"],
  ["COc1ccc2c(c1)CCc1cc(OC)ccc1/[N+]([O-])=[N+]\\2[O-]", "inactive"],
  ["ClCCN(CCCl)c1ccc(/C=N/Nc2ccnc3ccccc23)cc1", "inactive"]
]}

---

# System: CAKI-1
# TEST NAME: NCI tumour cell line growth inhibition, 48 h
Active and inactive are the calls of the source. Cut-off read from the data, not from the text of the source: active = GI50 up to about 1.1 µM and inactive = higher.

{"columns": ["COMPOUND", "TARGET SYSTEM", "GI50"],
 "data": [
  ["Cc1cc(S(=O)(=O)N/C(=N/N)NCCc2ccccc2)c(S)cc1Cl", "CAKI-1", "26.4 µM (inactive)"],
  ["CC(=O)NC1C(OCc2ccccc2)OC(CO)C(O)C1OCC(=O)N1CCCC1C(=O)N[C@@H](CCC(=O)NCCCCNc1c2ccccc2nc2cccc([N+](=O)[O-])c12)C(N)=O (some centres undefined)", "CAKI-1", "> 100 µM (inactive)"],
  ["Clc1ccc(NCc2nnc(COc3ccc(OCc4nnc(CNc5ccc(Cl)cc5)o4)c(Cl)c3)o2)cc1", "CAKI-1", "28.7 µM (inactive)"],
  ["CCCCCC(=O)OC[n+]1cccc(-c2c(COC(=O)NC(C)C)c(COC(=O)NC(C)C)c3n2CCC3)c1", "CAKI-1", "10.5 µM (inactive)"]
]}
